Field: pIC50. Provide a value for each of the molecules that follow.
- targetEntity: SIK2 (Homo sapiens, UniProt Q9H0K1)
- Sequence (Q9H0K1 whole entry, species assumed): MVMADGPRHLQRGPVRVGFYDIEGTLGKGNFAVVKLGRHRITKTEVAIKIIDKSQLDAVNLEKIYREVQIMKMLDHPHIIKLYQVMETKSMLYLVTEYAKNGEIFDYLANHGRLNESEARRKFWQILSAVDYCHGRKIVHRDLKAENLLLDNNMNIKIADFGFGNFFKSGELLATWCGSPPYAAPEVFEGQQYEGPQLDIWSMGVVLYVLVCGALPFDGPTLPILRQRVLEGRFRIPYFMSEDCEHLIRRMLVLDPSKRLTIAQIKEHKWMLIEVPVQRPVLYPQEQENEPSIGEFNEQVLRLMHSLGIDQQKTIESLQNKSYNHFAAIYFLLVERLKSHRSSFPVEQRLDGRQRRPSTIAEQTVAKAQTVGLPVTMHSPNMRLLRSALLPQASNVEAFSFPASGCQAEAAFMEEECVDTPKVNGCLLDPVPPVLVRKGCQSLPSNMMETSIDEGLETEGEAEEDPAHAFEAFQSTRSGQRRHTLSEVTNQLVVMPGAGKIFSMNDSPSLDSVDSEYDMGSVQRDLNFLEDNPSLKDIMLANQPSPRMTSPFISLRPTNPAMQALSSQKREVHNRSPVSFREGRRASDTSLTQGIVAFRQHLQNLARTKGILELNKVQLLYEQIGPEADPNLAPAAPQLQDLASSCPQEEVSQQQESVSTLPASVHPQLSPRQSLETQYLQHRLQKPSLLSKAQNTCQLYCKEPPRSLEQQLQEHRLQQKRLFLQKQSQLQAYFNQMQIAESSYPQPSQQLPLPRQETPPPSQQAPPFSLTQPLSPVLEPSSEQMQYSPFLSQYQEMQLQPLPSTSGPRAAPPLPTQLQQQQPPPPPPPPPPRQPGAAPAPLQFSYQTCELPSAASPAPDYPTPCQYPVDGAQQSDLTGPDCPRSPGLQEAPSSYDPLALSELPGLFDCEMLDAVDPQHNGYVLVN
- experimentNotes: SIK2 Enzymatic Assay High Version 2 (High ATP)
- Assay type: biochemical
Answers are plain numbers, as −log10 of the molar value.

Quick one: give me pIC50 for each item below, same order please.
1. Cc1cc(-c2ccn3nc(Nc4cccnn4)cc3c2)c(O[C@H]2C[C@H]3CC[C@@H](C2)N3C)cn1
2. N#Cc1cc(-c2ccn3nc(NC(=O)C4CC4)cc3c2)c(OCC2CCNC2)cn1 (stereo in doubt)

A:
1. 7.52
2. 7.63

Quick one: give me pIC50 for each item below, same order please.
1. CN1CCC[C@@H](Oc2cnc(C#N)cc2-c2ccn3nc(NC(=O)C4CC4)cc3c2)C1
2. Cc1cc(-c2ccn3nc(Nc4cc(C)nc(C)n4)cc3c2)c(OC[C@H]2CC[C@H](O)CO2)cn1 (single isomer, unassigned)
3. Cc1cnc(Nc2cc3cc(-c4cc(C)ncc4O[C@@H]4[C@@H]5CO[C@H]4CN5)ccn3n2)cn1
4. Cc1cc(-c2ccn3nc(NC(=O)C4CC4)cc3c2)c(OC[C@@H]2CCN2)cn1
5. Cc1cc(-c2ccn3nc(Nc4cn(CC(C)(C)O)nc4C(=O)C(F)(F)F)cc3c2)c(O[C@H]2C[C@H]3COC[C@@H](C2)N3)cn1
6. Cc1cc(-c2ccn3nc(Nc4ccccn4)cc3c2)c(OC2CN(C)C2)cn1
7. CCN1CC[C@H]1COc1cnc(C)cc1-c1ccn2nc(NC(=O)C3CC3)cc2c1
8. C[C@](O)(COc1cnc(C#N)cc1-c1ccn2nc(NC(=O)C3CC3)cc2c1)C(F)(F)F (single isomer, unassigned)

A:
[7.29, 7.45, 7.19, 7.70, 5.62, 6.60, 6.50, 7.66]

Quick one: give me pIC50 for each item below, same order please.
1. [2H]C([2H])([2H])N1CC[C@H]1COc1cnc(C)cc1-c1ccn2nc(NC(=O)C3CC3)cc2c1
2. Cc1cc(-c2ccn3nc(Nc4ccnc(C)n4)cc3c2)c(O[C@H]2C[C@H]3COC[C@@H](C2)N3S(C)(=O)=O)cn1
3. CN1CC[C@@H](COc2cnc(C#N)cc2-c2ccn3nc(NC(=O)C4CC4)cc3c2)C1
4. CN1CC[C@@H](COc2cnc(C#N)cc2-c2ccn3nc(Nc4ccccn4)cc3c2)C1
5. N#Cc1cc(-c2ccn3nc(NC(=O)C4CC4)cc3c2)c(OC[C@H]2CC[C@H](N)CC2)cn1
6. N#Cc1cc(-c2ccn3nc(NC(=O)C4CC4)cc3c2)c(O[C@H]2CCN(CC(F)(F)F)C2)cn1
7. Cc1cc(-c2ccn3nc(Nc4cnc(C(F)(F)F)cn4)cc3c2)c(O[C@H]2C[C@H]3COC[C@@H](C2)N3)cn1
8. CN1CCC(COc2cnc(C#N)cc2-c2ccn3nc(NC(=O)C4CC4)cc3c2)CC1

A:
1. 7.15
2. 5.93
3. 7.23
4. 7.40
5. 8.06
6. 8.11
7. 8.94
8. 6.94

Quick one: give me pIC50 for each item below, same order please.
1. N#Cc1cc(-c2ccn3nc(NC(=O)C4CC4)cc3c2)c(OC[C@@H]2CCN(C3CC3)C2)cn1
2. Cc1cc(-c2ccn3nc(Nc4cc(C)nc(C)n4)cc3c2)c(O[C@@H]2[C@@H]3CO[C@H]2CN3)cn1

A:
1: 7.12; 2: 7.69
